- System: SK-MEL-28 melanoma
- Run description: NCI tumour cell line growth inhibition, 48 h
Quantity: GI50

> print(dat)
                                   compound  measurement
1  OC(COc1cccc2ccccc12)CN1CCN(c2ccccc2Cl)CC1 (stereo unspecified)      14.5 µM
2       Cc1nnc(-c2ccc(-c3nc4ccccc4o3)cc2)o1     > 100 µM
3    N#Cc1cccc(OCc2ccccc2COc2cccc(C#N)c2)c1     > 100 µM
4    Oc1ccc(Cl)cc1-c1cc(-c2ccc(F)cc2)n[nH]1      8.35 µM
5  O=C(Nc1cc(-c2cccnc2)nc(NCCCN2CCOCC2)n1)c1cc(Br)cc(C(F)(F)F)c1      1.73 µM
6  CCOC(=O)Cc1csc(NC(=O)COC(=O)c2ccc(OC)cc2)n1     > 100 µM

====

- Tested on: SF-539 CNS
- Run description: NCI tumour cell line growth inhibition, 48 h
Below, each of the molecules is paired with its reported TGI value.
Quantity: TGI

> print(dat)
                                   molecule  measurement
1  C#Cc1cc2c(N)c(C(=O)c3cc(OC)c(OC)c(OC)c3)[nH]c2cc1OC       1.6 µM
2              CN(CCO)/N=N/c1[nH]ncc1C(N)=O     > 100 µM
3  CC(C)(C)OC(=O)N1N=NC2C3OC(CC3=O)C21 (centres undefined)     > 100 µM
4  O=C(/C(=C/c1ccccc1)c1ccccc1)N1c2ccccc2CC1c1c[nH]c2ccccc12 (centres undefined)     > 100 µM

====

- Test system: UACC-257 melanoma
- Run description: NCI tumour cell line growth inhibition, 48 h
Listed below: GI50 values for each entry.

Compound	GI50
CCOC(=S)SCN1C(=O)c2ccccc2S1(=O)=O	18.5 µM
OC(COc1cccc2ccccc12)CN1CCN(c2ccccc2Cl)CC1 (centres undefined)	16.5 µM
CCCCOc1ccc(/C=N/Nc2cc(C)nc3ccc(Cl)cc23)cc1	1.61 µM
CCOC(=O)/C(C#N)=C/Nc1ccc(-c2nc3ccccc3[nH]2)cc1	62.1 µM
CCCCCCNC(=O)Oc1ccc(/C(=C(\C)c2ccccc2)c2ccc(OCCN(CC)CC)cc2)cc1	1.21 µM
Cc1ccc2c(c1)C(=O)c1c-2n(CCCN=[N+]=[N-])c(=O)c2cc([N+](=O)[O-])ccc12	> 100 µM
Oc1c(CN2CCOCC2)cc(COCc2ccccc2)c2cccnc12	2.58 µM
CO[C@H](C(=O)O)[C@@H]1Cc2cc3cc(OC4CC(OC5CC(O)C(O)C(C)O5)C(O)C(C)O4)c(C)c(O)c3c(O)c2C(=O)[C@H]1OC1CC(OC2CC(OC3CC(C)(O)C(O)C(C)O3)C(O)C(C)O2)C(O)C(C)O1 (some centres undefined)	0.38 µM
O=S(=O)(O)ONC1=NCCN1	> 100 µM

====

- Test system: SF-539 CNS
- Run description: NCI tumour cell line growth inhibition, 48 h
Quantity: TGI (µM)

> print(dat)
                                    compound  unit.descriptor  modifier.sign  measurement
 1  OC(COc1cccc2ccccc12)CN1CCN(c2ccccc2Cl)CC1 (stereo not given)               µM              =         32.8
 2                       c1ccc(CCn2cncn2)cc1               µM              >          100
 3  O=S(=O)(/N=C(\NO)Nc1ccc(Cl)cc1)c1ccc(-c2ccccn2)s1               µM              >          100
 4  Cn1cc(NC(=O)c2cc(NC(=O)CCCCCCC(=O)Nc3cc(C(=O)Nc4cc(C(=O)NCCC(=N)N)n(C)c4)n(C)c3)cn2C)cc1C(=O)NCCC(=N)N               µM              =           31
 5               Nc1ccc(-c2nc3ccccc3s2)cc1Br               µM              >         78.9
 6    CN(C)CCNc1nc2ccccc2c2c(=O)c3ccccc3sc12               µM              =         3.58
 7  CC(=O)N1CCN(CCOc2ccc(C3CCN(C4=Nn5c(nnc5C(F)(F)F)CC4)CC3)cc2)CC1               µM              >          100
 8  CCCCCCNC(=O)Oc1ccc(/C(=C(\C)c2ccccc2)c2ccc(OCCN(CC)CC)cc2)cc1               µM              =         9.79
 9  Cc1ccc(NC(=O)CCC(=O)C(C#N)c2ccccc2)cc1C (stereo not given)               µM              >          100
10      CN(C)CCNc1nc2c(no[n+]2[O-])c2ccccc12               µM              =         27.6

====

- System: UACC-62 melanoma
- Run description: NCI tumour cell line growth inhibition, 48 h
As shown below, each of these compounds has a reported TGI value.

Compound	TGI
Cc1ccc(S(=O)OC23CC4CC(CC(C4)C2)C3)cc1 (stereo not drawn)	> 100 µM
O=C(/C(=C/c1ccccc1)c1ccccc1)N1c2ccccc2CC1c1c[nH]c2ccccc12 (stereo not drawn)	> 100 µM
C1CC[N-]CC1.CC(=N\O)/C(C)=N/O.CC(=N\O)/C(C)=N/O.[CH2-]CCN1CCOCC1.[Co+2]	> 100 µM
Oc1ccc(Cl)cc1-c1cc(-c2ccc(F)cc2)n[nH]1	9.5 µM
C1C[OH+]CC[OH+]CC[OH+]CC[OH+]CC[OH+]CC[OH+]1.[Cl-].[Nb+5]	> 100 µM
O=C1c2ccccc2-c2c1c1ccccc1c(=O)n2-c1ccccc1	> 54.2 µM
O=C1NC2(C=Cc3c(ccc4ccccc34)O2)Oc2ccccc21 (stereo not drawn)	> 100 µM
COC(=O)C(Cc1nc2ccccc2[nH]c1=O)C(=O)C(=O)Nc1cc(C(F)(F)F)ccc1Cl (stereo not drawn)	53.4 µM
C[N+](C)([O-])CCCNc1ccnc2cccc([N+](=O)[O-])c12	> 100 µM
Cc1c(C(=O)O[C@H]2[C@@H]3[C@H](C)CC[C@H]3[C@]3(C)O[C@@]2(C2CCCCC2)C[C@H]3OC(=O)CO)ccc2ccccc12	15.1 µM
Cc1ccc2c(=O)c(-c3n[nH]c(=S)s3)c[nH]c2n1	> 100 µM
COc1cc(/C=N\O)nc(-c2ccccn2)c1	8.28 µM
COc1ccc(C2C(Cl)C(=O)N2NC(=O)Cc2ccccc2)cc1OC (stereo not drawn)	> 100 µM
Cc1nc2c(=O)[nH]c3ccc(Cl)cc3c2o1	> 100 µM
CC(/C=N/NC1=NCCCN1)=N\NC1=NCCCN1	> 100 µM
COC(=O)C1CC(C(=O)OC)c2nc3cc(C)c(C)cc3nc21 (stereo not drawn)	> 100 µM
COc1ccc(C[C@@H]2OC3(C=CC(=O)C=C3)O[C@H]2Cc2ccc(OC)cc2)cc1	3.7 µM
C[N+](C)(N)c1nc(N)c(C#N)c(C#N)c1C#N	> 10 µM
COc1cc2c(cc1OC)-c1ncc3cc4c(cc3c1C2)OCO4	> 100 µM
Cc1ccc(NC(=O)CCC(=O)C(C#N)c2ccccc2)cc1C (stereo not drawn)	> 100 µM
Cc1nnc(-c2ccc(-c3nc4ccccc4o3)cc2)o1	> 100 µM
COC[C@@H](Cc1ccc(OC)c(OC)c1)[C@@H](COC)Cc1ccc(OC)c(OC)c1	> 100 µM
COc1ccc(N2C(=O)C3CC4=CC(=O)C[C@H]4[C@H]32)cc1 (stereo partly drawn)	> 100 µM
CC(C)N(C(C)C)P(OCCC#N)OC1CC(n2cnc3c(=O)[nH]cnc32)OC1COC(=O)NCCCCCCNC(=O)OC(C)(C)c1ccc(-c2ccccc2)cc1 (stereo not drawn)	35.3 µM
CCOP(=O)(OCC)C(C)(C)OC(=O)NC#N	> 100 µM
COc1cc(C=O)cc(C=Nc2ccc(S(N)(=O)=O)cc2)c1O	> 100 µM
CSC1=C(C(=O)Nc2ccccc2)C(N)=NC1=O	> 100 µM
CCc1nc(-n2c(-c3ccccc3)nc3ccccc3c2=O)nc(N)c1-c1ccc(Cl)cc1	> 100 µM
CN1CCN(CCOc2ccc(-c3cnc4c(-c5ccc(F)cc5)cnn4c3)cc2)CC1	3.36 µM
C=CC(Br)(CBr)CCC(Br)C(C)C (stereo not drawn)	12.5 µM
C#CCOC(=O)C(N)CCSC (stereo not drawn)	> 100 µM
CC[C@H](C)C1=C(OC(C)=O)[N@+]2([O-])Oc3ccc(-c4c(OC(C)=O)c(OC(C)=O)c(-c5ccc(OC(C)=O)cc5)c(OC(C)=O)c4OC(C)=O)cc3O[C@]2([C@@H](C)CC)C(=O)N1OC(C)=O	17.7 µM
C=CCC(SC)C1=C(C)C(=O)c2ccccc21 (stereo not drawn)	> 10 µM
CC1(C)C2CCC(N)(C2)C1O (stereo not drawn)	> 100 µM
C#CCCCC(=O)N(C(=O)CS(=O)CC)c1ccccc1 (stereo not drawn)	> 100 µM
O=C(Oc1cccc(Cl)c1)c1cc2cc(CCl)ccc2oc1=O	28.2 µM
CN(CCO)/N=N/c1[nH]ncc1C(N)=O	> 100 µM
C/C=C1\CC(C(=O)OCC)CCCCCCCCCCC1=O (stereo not drawn)	> 100 µM
COc1ccc(/C=N/N=C(\[O-])c2ccncc2)cc1F.COc1ccc(/C=N\N=C(/[O-])c2ccncc2)cc1F.[Cu+2]	52.8 µM
c1ccc(CCn2cncn2)cc1	> 100 µM
Nc1nc(N)c(-c2ccccc2)c(CCC(=O)Nc2ccc(Cl)cc2)n1	> 100 µM
COc1cc([C@@H]2c3cc4c(cc3C[C@H]3COC(=O)[C@@H]32)OCO4)cc2c1OCO2	> 100 µM
NC(N)=NCC(N)C(=O)O (stereo not drawn)	> 100 µM
